# system-under-test: UniProtKB P41149
# Sequence (P41149 whole entry): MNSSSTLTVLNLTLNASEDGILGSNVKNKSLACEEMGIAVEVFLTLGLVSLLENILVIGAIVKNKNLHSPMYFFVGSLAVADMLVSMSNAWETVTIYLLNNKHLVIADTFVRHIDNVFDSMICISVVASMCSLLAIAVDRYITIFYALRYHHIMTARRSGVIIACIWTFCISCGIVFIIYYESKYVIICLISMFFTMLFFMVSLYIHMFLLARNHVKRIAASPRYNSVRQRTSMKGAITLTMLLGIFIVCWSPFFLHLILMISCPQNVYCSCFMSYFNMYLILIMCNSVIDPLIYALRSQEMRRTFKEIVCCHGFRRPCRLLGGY
# method-summary: Agonist activity at mouse melanocortin receptor 5 expressed in HEK293 cells assessed as stimulation of intracellular cAMP accumulation incubated for 24 hrs by beta-galactosidase reporter gene assay
measurement-name: EC50 (nM)
# unit: nM | format: bare number

Ask | // map CCC[C@@H]1CN([C@H](Cc2ccccc2)CN2CCC[C@H]2CN2C(=N)NC[C@H]2C(C)C)C(=N)N1CC1CCC(C(C)(C)C)CC1 (stereo not given in full) to recorded EC50 (system: UniProtKB P41149)
Reply | 940

Ask | What measured EC50 is associated with CC(C)C[C@@H]1CNC(=N)N1C[C@@H]1CCCN1C[C@@H](Cc1ccccc1)N1C[C@@H]([C@@H](C)O)N(CC2CCC(C(C)(C)C)CC2)C1=N (stereo not given in full) on UniProtKB P41149?
Reply | 530

Ask | Can you look up EC50 on UniProtKB P41149 for CC(C)[C@@H]1CNC(=N)N1C[C@@H]1CCCN1C[C@@H](CC1CCCCC1)N1C[C@@H](C(C)C)N(CC2CCC(C(C)(C)C)CC2)C1=N (stereo not given in full) ?
Reply | 510

New cases:
Ask | // fetch UniProtKB P41149 EC50 for `CCC[C@@H]1CN([C@H](Cc2ccccc2)CN2CCC[C@H]2CN2C(=N)NC[C@H]2CC(C)C)C(=N)N1CC12CC3CC(CC(C3)C1)C2`
Reply | 610

Ask | Lookup: EC50 / UniProtKB P41149 / `CC(C)C[C@@H]1CNC(=N)N1C[C@@H]1CCCN1C[C@@H](CC1CCCCC1)N1C[C@@H](C(C)C)N(CC23CC4CC(CC(C4)C2)C3)C1=N`
Reply | 500
